Listed here: items and their measured EC50.
target: 5-hydroxytryptamine receptor 2A (Mus musculus, UniProt P35363); format: functional, cell-based;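 further: CHO-K1 cells with tagged receptor and beta-arrestin; agonist potency measured as compound-induced activation of the receptor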
Sequence (P35363 whole entry): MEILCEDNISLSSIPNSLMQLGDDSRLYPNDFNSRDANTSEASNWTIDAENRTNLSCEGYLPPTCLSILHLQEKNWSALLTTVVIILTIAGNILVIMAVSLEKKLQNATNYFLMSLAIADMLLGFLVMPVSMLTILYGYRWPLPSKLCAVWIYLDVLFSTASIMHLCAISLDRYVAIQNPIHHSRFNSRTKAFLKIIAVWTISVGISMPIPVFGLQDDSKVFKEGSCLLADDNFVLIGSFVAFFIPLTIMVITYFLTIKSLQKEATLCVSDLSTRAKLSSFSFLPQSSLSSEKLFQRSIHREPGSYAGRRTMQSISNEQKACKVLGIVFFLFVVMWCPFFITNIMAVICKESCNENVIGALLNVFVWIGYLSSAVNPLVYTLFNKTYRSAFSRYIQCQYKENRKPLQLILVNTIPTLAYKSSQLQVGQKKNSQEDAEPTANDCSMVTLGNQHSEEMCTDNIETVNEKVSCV
Active and inactive are the calls of the source.
experimental.readout: EC50

>>> test_value("CC(=O)N1CCC(N2CCN(c3ccccc3F)CC2)CC1")
"1160 nM (active)"
>>> test_value("CCCCCCCC/C=C\\CCCCCCCC(=O)NCCc1ccc(O)c(O)c1")
"957 nM (active)"
>>> test_value("O=C(c1ccco1)N1CCN(Cc2ccccc2Br)CC1")
"5910 nM (active)"
>>> test_value("C=CCN1CCc2c(cc(O)c(O)c2Cl)C(c2ccccc2)C1 (stereo not given)")
"203 nM (active)"
>>> test_value("Oc1cc2c(cc1CN1CCN(c3ncccn3)CC1)OCO2")
"106 nM (active)"
